Hello, the source for this data is PubChem BioAssay, in case you need it.

Catalogue of Her2 level readings, one per entry.
# target.or.system: Receptor tyrosine-protein kinase erbB-2 (Homo sapiens)
# experiment.description: Her2 expression decrease, cell viability multiplex – SKBR3 breast tumor cells, AlphaScreen, ATP viability, primary screen (AID 461);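 note: lower value means less Her2 protein in the cells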
# measurement.setup: 18-24 h, at 10 µM, stronger effect = lower value
Numbers only here, please. The scale is %.

# compound, Her2 level (%)
measured = [
    ("COc1cccc(C2C(C(N)=O)=C(C)Nc3nc(CCCO)nn32)c1OC (stereo unspecified)", 103),
    ("O=C(Nc1ccc2c(c1)OCCO2)c1cnc2n(c1=O)CCS2", 80.5),
    ("COc1cccc(C2=NOC(C(=O)N3CCN(c4ccccc4)CC3)C2)c1OC (stereo unspecified)", 97.5),
    ("CCn1c(-c2cc(Br)ccc2O)n[nH]c1=S", 88.5),
    ("Cc1nc2ccccc2c2oc(C(=O)NCCN3CCCCC3C)cc12 (stereo unspecified)", 94),
]

Any idea what Her2 level was measured for CCc1ccccc1N1CC23C=CC(O2)C(C(=O)O)C3C1=O (stereo unspecified) ? 93.5

Any idea what Her2 level was measured for CCOc1ccc(N(CC(=O)Nc2ccc(F)c(F)c2)S(=O)(=O)c2c(C)noc2C)cc1 ? 80

Any idea what Her2 level was measured for Cc1cccc(NC(=O)c2ccccc2O)c1C ? 75.5

Any idea what Her2 level was measured for CCOC(=O)N1CCC(NC(=O)c2cc3c(=O)n(C)c4ccccc4c3n2C)CC1 ? 94

Any idea what Her2 level was measured for COc1cccc(C2CC(c3ccc(C)cc3)n3nc(N)nc3N2)c1 (stereo unspecified) ? 112

Any idea what Her2 level was measured for N#CCCN1CCN(S(=O)(=O)c2ccc(S(=O)(=O)NC3CCCCC3)cc2)CC1 ? 105
